All figures here come from patent US20260209214A1.

# Target of assay: Recombinant human LSD1 (Homo sapiens)
# Experiment notes: LSD1 inhibition assay (HTRF LSD1 Histone H3K4 mono-demethylation assay, me1->me0)
# Assay type: biochemical
# Particulars: 20 nM recombinant human LSD1, 95 nM H3K4(me1) biotinylated peptide, 15 min preincubation, 60 min at 25° C., read-out: LSD1 inhibition IC50 (nM range)
Quantity kind: IC50

* Cc1ncsc1-c1c(CC2CNCCO2)cccc1-c1ccc(C#N)c(F)c1 (stereo not shown) | 10 to 25 nM

[Q] Supply IC50 value. Item: `CN[C@H]1CCCN(Cc2cccc(-c3ccc(C#N)c(F)c3)c2C2CC2)CC1`
[A] 25 to 100 nM

[Q] Supply IC50 value. Item: CN(C[C@H]1CCCOC1)c1ccc(CC2CNCCO2)cc1-c1ccc(C#N)c(F)c1 (stereo partly shown)
[A] 100 to 1000 nM

[Q] Supply IC50 value. Item: N#Cc1ccc(-c2cc(CC3CNCCO3)ccc2N2CCC3(CCOC3)C2)cc1F (stereo not shown)
[A] 100 to 1000 nM

[Q] Supply IC50 value. Item: Cc1cccnc1-c1ccc(CN2[C@@H]3CC[C@H]2[C@@H](N)C3)cc1-c1ccc(C#N)c(F)c1 (racemic)
[A] 10 to 25 nM

[Q] Supply IC50 value. Item: N#Cc1ccc(-c2cc(F)cc(C[C@H]3CNCCO3)c2-c2ccns2)cc1F (single isomer, unassigned)
[A] 10 to 25 nM

[Q] Supply IC50 value. Item: N#Cc1ccc(-c2cccc(C[C@@H]3CNCCO3)c2-c2scnc2Cl)cc1F (single isomer, unassigned)
[A] 10 to 25 nM

[Q] Supply IC50 value. Item: `Cc1cc(CN2C[C@@H]3C[C@H]2CN3C(C)C)c(Cl)c(-c2ccc(C#N)c(F)c2)c1`
[A] 100 to 1000 nM

[Q] Supply IC50 value. Item: COCC1(O)CCCN(c2ccc(CC3CNCCO3)cc2-c2ccc(C#N)c(F)c2)CC1 (stereo not shown)
[A] 100 to 1000 nM

[Q] Supply IC50 value. Item: N#Cc1ccc(-c2cccc(C[C@H]3CNCCO3)c2-c2scnc2Cl)cc1F (single isomer, unassigned)
[A] 25 to 100 nM

[Q] Supply IC50 value. Item: N#Cc1ccc(-c2cccc(CN3CC4CCC3C(N)C4)c2C2CC2)cc1F (stereo not shown)
[A] 25 to 100 nM

[Q] Supply IC50 value. Item: N#Cc1ccc(-c2cccc(CC3CNCCO3)c2C2=CCOC2)cc1F (stereo not shown)
[A] 10 to 25 nM

[Q] Supply IC50 value. Item: `N#Cc1ccc(-c2cc(CN3C[C@]4(N)CC[C@H]3C4)ccc2N2CCC3(CCCO3)CC2)cc1F`
[A] 10 to 25 nM

[Q] Supply IC50 value. Item: N#Cc1ccc(-c2cc(CC3CNCCO3)ccc2N2CCC3(CCOC3)CC2)cc1F (stereo not shown)
[A] 25 to 100 nM

[Q] Supply IC50 value. Item: COCc1ncc(-c2ccc(CC3CNCCO3)cc2-c2ccc(C#N)c(F)c2)o1 (stereo not shown)
[A] > 1000 nM

[Q] Supply IC50 value. Item: `N#Cc1ccc(-c2cccc(CN3CC4(CCNCC4)C3)c2Cl)cc1F`
[A] 100 to 1000 nM

---

# Target of assay: Recombinant human LSD1 (Homo sapiens, UniProt O60341)
# Experiment notes: LSD1 inhibition assay (HTRF LSD1 Histone H3K4 mono-demethylation assay, me1->me0)
# Format: biochemical
# Particulars: 20 nM recombinant human LSD1, 95 nM H3K4(me1) biotinylated peptide, 15 min preincubation, 60 min at 25° C., read-out: LSD1 inhibition IC50 (nM range)
Quantity kind: IC50

• N#Cc1ccc(-c2cccc(CN3[C@@H]4CC[C@H]3[C@@H](N)C4)c2-c2ccns2)cc1 (racemic) [Example 170] = 10 to 25 nM

[Q] Supply IC50 value. Item: COc1ccc(-c2ccc(CC3CNCCO3)cc2-c2ccc(C#N)c(F)c2)cc1F (stereo not shown)
[A] 100 to 1000 nM

[Q] Supply IC50 value. Item: N#Cc1ccc(-c2cccc(CC3CNCCO3)c2-c2cnco2)cc1 (stereo not shown)
[A] 25 to 100 nM
